molecular target: Peroxisome proliferator-activated receptor gamma (Homo sapiens) (UniProt P37231); assay: compounds enhancing SRC-2 coactivator binding to PPARgamma – biochemical, HTS, primary screen (AID 1032); conditions: PPARgamma LBD-SRC-2 recruitment, at 8 µM, hits give high values;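 further: 0% = vehicle and 100% = reference agonist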
Sequence (P37231 whole entry, looked up, the tested form may be a part): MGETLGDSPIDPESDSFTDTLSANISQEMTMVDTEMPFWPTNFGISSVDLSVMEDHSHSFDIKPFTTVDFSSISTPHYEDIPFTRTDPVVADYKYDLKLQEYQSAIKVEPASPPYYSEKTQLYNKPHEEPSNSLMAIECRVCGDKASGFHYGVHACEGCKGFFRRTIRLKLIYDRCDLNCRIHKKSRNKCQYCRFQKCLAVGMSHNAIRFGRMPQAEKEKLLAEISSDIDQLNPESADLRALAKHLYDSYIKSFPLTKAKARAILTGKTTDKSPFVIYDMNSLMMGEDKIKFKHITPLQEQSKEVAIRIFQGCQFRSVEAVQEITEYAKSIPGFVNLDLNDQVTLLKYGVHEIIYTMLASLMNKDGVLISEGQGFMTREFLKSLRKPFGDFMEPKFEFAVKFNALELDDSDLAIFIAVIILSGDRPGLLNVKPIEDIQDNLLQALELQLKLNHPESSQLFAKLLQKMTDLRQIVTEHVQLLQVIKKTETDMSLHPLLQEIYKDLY
The campaign covered roughly 200,000 compounds. About 670 (0.34%) were called active. The entries come from a sample that favours actives as a whole.
ENDPOINT_NAME: activation (%)
// return numeric value only (unit: %, not printed)

Study these solved cases before continuing.
>  <COMPOUND>
O=C(NC(=S)Nc1cc(C(F)(F)F)ccc1N1CCOCC1)c1ccc(-c2cccc(Cl)c2)o1

>  <TARGET_DESC>
Peroxisome proliferator-activated receptor gamma (Homo sapiens) (UniProt P37231)

>  <VALUE_UNIT>
%

>  <ENDPOINT_RESULT>
2.85

$$$$
>  <COMPOUND>
NC(=O)CSc1oc(-c2cccs2)nc1S(=O)(=O)c1ccccc1

>  <TARGET_DESC>
Peroxisome proliferator-activated receptor gamma (Homo sapiens) (UniProt P37231)

>  <VALUE_UNIT>
%

>  <ENDPOINT_RESULT>
36.9

$$$$
>  <COMPOUND>
O=C(CSCc1cccs1)N1CCCC1

>  <TARGET_DESC>
Peroxisome proliferator-activated receptor gamma (Homo sapiens) (UniProt P37231)

>  <VALUE_UNIT>
%

>  <ENDPOINT_RESULT>
-3.94

$$$$
>  <COMPOUND>
O=C(CSc1ncnc2c1nnn2Cc1ccc(F)cc1)NC1CCCC1

>  <TARGET_DESC>
Peroxisome proliferator-activated receptor gamma (Homo sapiens) (UniProt P37231)

>  <VALUE_UNIT>
%

>  <ENDPOINT_RESULT>
11.8

$$$$
>  <COMPOUND>
O=C(Nn1cnnc1)c1ccc([N+](=O)[O-])cc1

>  <TARGET_DESC>
Peroxisome proliferator-activated receptor gamma (Homo sapiens) (UniProt P37231)

>  <VALUE_UNIT>
%

>  <ENDPOINT_RESULT>
8.86

$$$$

# activation of "O=C(CSc1ccsc1[N+](=O)[O-])N1CCCCC1" = 22

Attribution: PubChem BioAssay AID1032
